system: Escherichia coli TOP10; test: shrunken log2 fold change of peptide-encoding DNA abundance (4.5 h post-induction vs induction); higher = less antimicrobial activity (less host growth inhibition); details: time post-induction: 4.5 h; library: site-saturation at positions 5, 18, 19, 20
Threshold rule: shrunken log2 fold change greater than or equal to -0.1 is label 1; below that, label 0.

>  <constructSequence>
RRIRHRPPRLPRPRPRPPVIPRP

>  <assayedSystem>
Escherichia coli TOP10

>  <cat>
label 0

$$$$
>  <constructSequence>
RRIRLRPPRLPRPRPRPNVGPRP

>  <assayedSystem>
Escherichia coli TOP10

>  <cat>
label 1

$$$$
>  <constructSequence>
RRIRKRPPRLPRPRPRPFRRPRP

>  <assayedSystem>
Escherichia coli TOP10

>  <cat>
label 1

$$$$
>  <constructSequence>
RRIRERPPRLPRPRPRPNPMPRP

>  <assayedSystem>
Escherichia coli TOP10

>  <cat>
label 0

$$$$
>  <constructSequence>
RRIRGRPPRLPRPRPRPCMHPRP

>  <assayedSystem>
Escherichia coli TOP10

>  <cat>
label 1

$$$$

query: Dear colleague, could you confirm whether RRIRVRPPRLPRPRPRPQRCPRP has shrunken log2 fold change at or above -0.1?
result: label 1

query: Dear colleague, could you confirm whether RRIRIRPPRLPRPRPRPFSKPRP has shrunken log2 fold change at or above -0.1?
result: label 1

* * *

system: Escherichia coli TOP10; assay: shrunken log2 fold change of peptide-encoding DNA abundance (4.5 h post-induction vs induction); higher = less antimicrobial activity (less host growth inhibition); details: time post-induction: 4.5 h; library: site-saturation at positions 5, 18, 19, 20;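 further: peptides expressed intracellularly from a pBAD plasmid library in pooled LB shake-flask culture, induced with 0.3% L-arabinose, DNA abundance read by NGS, three biological replicates, DESeq2 with apeglm shrinkage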
observationType: shrunken log2 fold change
Write no unit; give the number alone.

Consider the following illustrative entries.
>  <constructSequence>
RRIRRRPPRLPRPRPRPFPHPRP

>  <observationType>
shrunken log2 fold change

>  <readoutNumber>
0.292

$$$$
>  <constructSequence>
RRIRCRPPRLPRPRPRPCPMPRP

>  <observationType>
shrunken log2 fold change

>  <readoutNumber>
-8.18e-06

$$$$
>  <constructSequence>
RRIRDRPPRLPRPRPRPGWWPRP

>  <observationType>
shrunken log2 fold change

>  <readoutNumber>
0.227

$$$$
>  <constructSequence>
RRIRLRPPRLPRPRPRPPMGPRP

>  <observationType>
shrunken log2 fold change

>  <readoutNumber>
0.194

$$$$
>  <constructSequence>
RRIRNRPPRLPRPRPRPDQGPRP

>  <observationType>
shrunken log2 fold change

>  <readoutNumber>
-0.257

$$$$
>  <constructSequence>
RRIRGRPPRLPRPRPRPTECPRP

>  <observationType>
shrunken log2 fold change

>  <readoutNumber>
0.267

$$$$
>  <constructSequence>
RRIRQRPPRLPRPRPRPCPFPRP

>  <observationType>
shrunken log2 fold change

>  <readoutNumber>
-0.505

$$$$
>  <constructSequence>
RRIRCRPPRLPRPRPRPMGWPRP

>  <observationType>
shrunken log2 fold change

>  <readoutNumber>
0.324

$$$$
>  <constructSequence>
RRIRQRPPRLPRPRPRPCKTPRP

>  <observationType>
shrunken log2 fold change

>  <readoutNumber>
-0.01

$$$$
>  <constructSequence>
RRIRRRPPRLPRPRPRPVNEPRP

>  <observationType>
shrunken log2 fold change

>  <readoutNumber>
0.196

$$$$

# input for lookup
query: # shrunken log2 fold change lookup, item RRIRGRPPRLPRPRPRPAICPRP
result: 0.555
